system_name: MASP-2 CCP2-SP (Homo sapiens (Human))
Sequence (O00187 445-686): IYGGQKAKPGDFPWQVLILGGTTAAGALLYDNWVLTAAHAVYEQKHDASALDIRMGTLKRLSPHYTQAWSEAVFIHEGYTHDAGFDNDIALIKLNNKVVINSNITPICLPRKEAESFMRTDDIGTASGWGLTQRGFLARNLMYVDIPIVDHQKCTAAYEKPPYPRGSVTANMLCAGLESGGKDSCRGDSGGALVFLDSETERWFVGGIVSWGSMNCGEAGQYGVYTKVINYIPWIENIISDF
Sequence (O00187 364-432 partner): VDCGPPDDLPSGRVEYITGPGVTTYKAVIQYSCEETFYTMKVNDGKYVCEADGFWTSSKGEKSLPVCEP
test: MASP-2 co-crystallization, X-ray crystallography and structure analysis (H-bonds, van der Waals contacts)
protocol_conditions: Table A8-6; nearest protein atom in cell to the left
The label label 1 is reserved for Pharmacophore protein distance to PRO_608 strictly under 4; label 0 covers values equal to or above it.

{"molecule": "C[C@H](NC(=O)[C@H](N)CCCc1ccccc1)C(=O)NCc1ccc(C(=N)N)cc1.Cl.Cl [1042_1]", "system_name": "MASP-2 CCP2-SP (Homo sapiens (Human))", "category_label": "label 1"}
{"molecule": "C[C@H](NC(=O)[C@H](N)CCc1cc(Cl)cc(Cl)c1)C(=O)NCc1ccc(C(=N)N)cc1 [compound 1118]", "system_name": "MASP-2 CCP2-SP (Homo sapiens (Human))", "category_label": "label 0"}
{"molecule": "C[C@H](NC(=O)[C@H](N)CCc1ccccc1)C(=O)NCc1ccc(N)nc1.Cl.Cl [1007_1]", "system_name": "MASP-2 CCP2-SP (Homo sapiens (Human))", "category_label": "label 1"}
{"molecule": "CNC(=O)c1ccc2c(=O)n(Cc3ccccc3)c(=O)n(CC(=O)NCc3ccc(C(=N)N)cc3)c2c1 [compound 2018]", "system_name": "MASP-2 CCP2-SP (Homo sapiens (Human))", "category_label": "label 1"}
{"molecule": "C[C@H](NC(=O)[C@@H](CCc1ccccc1)NCc1ccc(N2CCOCC2)cc1)C(=O)NCc1ccc(C(=N)N)cc1 [compound 1149]", "system_name": "MASP-2 CCP2-SP (Homo sapiens (Human))", "category_label": "label 0"}
{"molecule": "C[C@H](NC(=O)[C@H]1C[C@@H](c2ccccc2)CCN1)C(=O)NCc1cc(Cl)ccc1O.Cl [1078_1]", "system_name": "MASP-2 CCP2-SP (Homo sapiens (Human))", "category_label": "label 1"}
{"molecule": "C[C@H](NC(=O)[C@H]1C[C@@H](c2ccccc2)CCN1)C(=O)NCc1ccc(C(=N)N)cc1 (stereo in doubt) [compound 1065]", "system_name": "MASP-2 CCP2-SP (Homo sapiens (Human))", "category_label": "label 1"}
{"molecule": "C[C@H](NC(=O)[C@@H](CCc1ccccc1)NCc1ccc(C(=O)N2CCOCC2)cc1)C(=O)NCc1ccc(C(=N)N)cc1.Cl.Cl [1153_B]", "system_name": "MASP-2 CCP2-SP (Homo sapiens (Human))", "category_label": "label 0"}
{"molecule": "C[C@H](NC(=O)[C@H]1C[C@@H](c2ccccc2)CCN1)C(=O)NCc1cc(Cl)ccc1O.Cl [1078_10]", "system_name": "MASP-2 CCP2-SP (Homo sapiens (Human))", "category_label": "label 1"}
{"molecule": "O=c1oc(-c2ccccc2[N+](=O)[O-])nc2ccccc12 [compound 14]", "system_name": "MASP-2 CCP2-SP (Homo sapiens (Human))", "category_label": "label 0"}
{"molecule": "C[C@H](NC(=O)[C@H](N)C1Cc2ccccc2C1)C(=O)NCc1ccc2c(N)nccc2c1.Cl.Cl [1088_B]", "system_name": "MASP-2 CCP2-SP (Homo sapiens (Human))", "category_label": "label 1"}
{"molecule": "C[C@H](NC(=O)[C@H](N)C1Cc2ccccc2C1)C(=O)NCc1ccc2nc(N)[nH]c2c1 [compound 1059]", "system_name": "MASP-2 CCP2-SP (Homo sapiens (Human))", "category_label": "label 1"}
{"molecule": "C[C@H](NC(=O)C1C[C@@H](c2ccccc2)CCN1)C(=O)NCc1ccc(C(=N)N)cc1 (stereo in doubt) [compound 1063]", "system_name": "MASP-2 CCP2-SP (Homo sapiens (Human))", "category_label": "label 0"}
{"molecule": "C[C@H](NC(=O)[C@H]1Cc2c([nH]c3ccccc23)CN1)C(=O)NCc1ccc(C(=N)N)cc1.Cl.Cl [1097_2]", "system_name": "MASP-2 CCP2-SP (Homo sapiens (Human))", "category_label": "label 1"}
{"molecule": "N=C(N)c1ccc(CNC(=O)[C@@H]2CCN2C(=O)[C@H]2Cc3ccccc3CN2)cc1 [compound 1034]", "system_name": "MASP-2 CCP2-SP (Homo sapiens (Human))", "category_label": "label 1"}
{"molecule": "C[C@H](NC(=O)[C@H](N)CCCc1ccccc1)C(=O)NCc1ccc(C(=N)N)cc1.Cl.Cl [1042_2]", "system_name": "MASP-2 CCP2-SP (Homo sapiens (Human))", "category_label": "label 1"}
{"molecule": "C[C@H](NC(=O)[C@H](N)C1Cc2ccccc2C1)C(=O)NCc1ccc2c(N)nccc2c1.Cl.Cl [1088_A]", "system_name": "MASP-2 CCP2-SP (Homo sapiens (Human))", "category_label": "label 1"}
{"molecule": "C[C@H](NC(=O)[C@H](N)CCc1cccc(Cl)c1)C(=O)NCc1ccc(C(=N)N)cc1 [compound 1081]", "system_name": "MASP-2 CCP2-SP (Homo sapiens (Human))", "category_label": "label 0"}
{"molecule": "C[C@H](NC(=O)[C@H](N)CCc1ccccc1)C(=O)NCc1ccc(N)nc1.Cl.Cl [1007_2]", "system_name": "MASP-2 CCP2-SP (Homo sapiens (Human))", "category_label": "label 1"}
{"molecule": "CC(NC(=O)C(CCc1ccccc1)NCc1ccc(C(=O)N2CCOCC2)cc1)C(=O)NCc1ccc(C(=N)N)cc1.Cl.Cl (stereo not drawn) [1153_A]", "system_name": "MASP-2 CCP2-SP (Homo sapiens (Human))", "category_label": "label 0"}

----------
Quick reference for H-bond distance to MASP-2 SER 657 atom O among some compounds
system_name: MASP-2 CCP2-SP (Homo sapiens (Human))
test: MASP-2 co-crystallization, X-ray crystallography and structure analysis (H-bonds, van der Waals contacts)
protocol_conditions: Table A1 (H-Bonds); SER 657 O
Text: This example illustrates the preparation of recombinant MASP-2 protein, based on UniProt O00187, human mannan-binding lectin serine protease 2. Expression constructs for human MASP-2 CCP2-SP and CCP2-SP-6HIS were generated for recombinant expression in E. coli cells. […]
Structures can show the parent of a compound that is named as a salt.
assay_readout: H-bond distance to MASP-2 SER 657 atom O

{"compound": "C[C@H](NC(=O)[C@@H](CCc1ccccc1)NCc1ccc(N2CCOCC2)cc1)C(=O)NCc1ccc(C(=N)N)cc1", "assay_readout": "H-bond distance to MASP-2 SER 657 atom O", "measured_result": 2.75}
{"compound": "C[C@H](NC(=O)[C@H]1Cc2c([nH]c3ccccc23)CN1)C(=O)NCc1ccc(C(=N)N)cc1", "assay_readout": "H-bond distance to MASP-2 SER 657 atom O", "measured_result": 2.74}
{"compound": "C[C@H](NC(=O)[C@H]1C[C@H](c2ccccc2)CN1)C(=O)NCc1ccc(C(=N)N)cc1", "assay_readout": "H-bond distance to MASP-2 SER 657 atom O", "measured_result": 2.93}
{"compound": "Cc1nc(N)ccc1CNC(=O)[C@H](C)NC(=O)[C@H]1C[C@H](Cc2cc(Cl)cc(Cl)c2)CN1 [compound 1435, Dihydrochloride]", "assay_readout": "H-bond distance to MASP-2 SER 657 atom O", "measured_result": 2.84}
{"compound": "Cc1nc(N)ccc1CNC(=O)[C@H](C)NC(=O)c1cc(Cc2ccccc2)n[nH]1", "assay_readout": "H-bond distance to MASP-2 SER 657 atom O", "measured_result": 2.88}
{"compound": "Cc1nc(N)ccc1CNC(=O)[C@H](C)NC(=O)[C@H]1C[C@@H](c2ccccc2)CCN1CCC(=O)O [compound 1411, Trifluoroacetate salt]", "assay_readout": "H-bond distance to MASP-2 SER 657 atom O", "measured_result": 2.61}
{"compound": "N=C(N)c1ccc(CNC(=O)[C@@H]2CCN2C(=O)[C@H]2Cc3ccccc3CN2)cc1", "assay_readout": "H-bond distance to MASP-2 SER 657 atom O", "measured_result": 2.75}
{"compound": "Cc1nc(N)ccc1CNC(=O)[C@H](C)NC(=O)[C@H]1C[C@@H](c2ccccc2)CCN1C", "assay_readout": "H-bond distance to MASP-2 SER 657 atom O", "measured_result": 2.91}
{"compound": "Cc1nc(N)ccc1CNC(=O)[C@H](C)NC(=O)[C@H]1C[C@H](Cc2ccccc2)CN1", "assay_readout": "H-bond distance to MASP-2 SER 657 atom O", "measured_result": 2.96}
{"compound": "C[C@H](NC(=O)[C@H](N)CCc1cccc(Cl)c1)C(=O)NCc1ccc(C(=N)N)cc1", "assay_readout": "H-bond distance to MASP-2 SER 657 atom O", "measured_result": 2.69}

----------
system_name: MASP-2 CCP2-SP (Homo sapiens (Human))
test: MASP-2 co-crystallization, X-ray crystallography and structure analysis (H-bonds, van der Waals contacts)
protocol_conditions: Table A6-2 pharmacophore angle
assay_readout: a(O2, N2, C2)

{"compound": "C[C@H](NC(=O)[C@H](N)C1Cc2ccccc2C1)C(=O)NCc1ccc2c(N)nccc2c1.Cl.Cl [1088_A]", "assay_readout": "a(O2, N2, C2)", "measured_result": 141.58}
{"compound": "C[C@H](NC(=O)[C@H]1C[C@@H](c2ccccc2)CCN1)C(=O)NCc1cc(Cl)ccc1O.Cl [1078_8]", "assay_readout": "a(O2, N2, C2)", "measured_result": 125.44}
{"compound": "C[C@H](NC(=O)[C@H](N)C1Cc2ccccc2C1)C(=O)NCc1ccc2nc(N)[nH]c2c1", "assay_readout": "a(O2, N2, C2)", "measured_result": 139.14}
{"compound": "C[C@H](NC(=O)[C@H]1C[C@@H](c2ccccc2)CCN1)C(=O)NCc1cc(Cl)ccc1O.Cl [1078_2]", "assay_readout": "a(O2, N2, C2)", "measured_result": 128.07}
{"compound": "C[C@H](NC(=O)[C@H]1C[C@@H](c2ccccc2)CCN1)C(=O)NCc1cc(Cl)ccc1O.Cl [1078_9]", "assay_readout": "a(O2, N2, C2)", "measured_result": 119.45}
{"compound": "Cc1nc(N)ccc1CNC(=O)C(C)NC(=O)C1CC(c2cccc3ccccc23)CCN1.Cl.Cl (stereo not shown) [1297_6]", "assay_readout": "a(O2, N2, C2)", "measured_result": 116.76}
{"compound": "C[C@H](NC(=O)C1C[C@@H](c2ccccc2)CCN1)C(=O)NCc1ccc(C(=N)N)cc1 (stereo in doubt)", "assay_readout": "a(O2, N2, C2)", "measured_result": 118.75}
